# assayedTarget: Sodium/glucose cotransporter 2 (Homo sapiens)
# Sequence (P31639 whole entry): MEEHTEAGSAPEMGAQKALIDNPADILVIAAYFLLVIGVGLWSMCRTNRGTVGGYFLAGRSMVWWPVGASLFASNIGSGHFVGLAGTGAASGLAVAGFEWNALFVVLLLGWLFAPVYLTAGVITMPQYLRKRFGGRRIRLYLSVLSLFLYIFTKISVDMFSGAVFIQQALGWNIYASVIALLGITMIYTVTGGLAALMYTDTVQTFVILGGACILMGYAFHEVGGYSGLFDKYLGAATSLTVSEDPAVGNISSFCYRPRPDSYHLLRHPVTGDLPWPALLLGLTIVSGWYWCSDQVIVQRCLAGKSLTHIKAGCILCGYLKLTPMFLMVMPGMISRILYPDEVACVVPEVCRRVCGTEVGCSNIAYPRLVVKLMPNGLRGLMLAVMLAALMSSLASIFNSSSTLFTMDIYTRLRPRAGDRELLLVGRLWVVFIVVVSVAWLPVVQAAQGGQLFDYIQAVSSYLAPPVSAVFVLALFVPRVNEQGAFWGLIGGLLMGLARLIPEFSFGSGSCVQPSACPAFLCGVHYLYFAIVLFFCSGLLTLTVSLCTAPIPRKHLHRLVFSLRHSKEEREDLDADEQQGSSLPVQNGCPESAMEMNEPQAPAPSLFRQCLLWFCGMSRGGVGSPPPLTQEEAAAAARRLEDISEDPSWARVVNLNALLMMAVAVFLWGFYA
observationType: pKi
The meaning of pKi here: minus log10 of the concentration in molar units.

Lab entry: Sodium/glucose cotransporter 2 (Homo sapiens) assay, compound CCOC(=O)OC[C@H]1O[C@@H](Oc2nn(C(C)C)c(C)c2Cc2ccc(OC(C)C)cc2)[C@H](O)[C@@H](O)[C@@H]1O [REMOGLIFLOZIN ETABONATE] , pKi = 7.91

###

# testMethodNotes: Half life in human
# Format: ADME
observationType: half-life (h)
I only need the number, in h, no unit after it.

Lab note: measured half-life of CCOC(=O)OC[C@H]1O[C@@H](Oc2nn(C(C)C)c(C)c2Cc2ccc(OC(C)C)cc2)[C@H](O)[C@@H](O)[C@@H]1O [REMOGLIFLOZIN ETABONATE] was 2
